assay_method_text: Oral bioavailability in Wistar rat at 50 mg/kg
Assay type: ADME, organism-based
run_conditions: in vivo
property: bioavailability

Name the reported bioavailability value associated with the compound COc1ccc(N2Cc3cnc(Nc4ccccc4)nc3N([C@@H]3CC[C@@H](O)C3)C2=O)cc1 (racemic)
65%

---

assay_method_text: AUC in C57/BL6 mouse at 100 mg/kg, po bid for 5 days
Type: ADME, organism-based
Parameters: dose 100 mg/kg, route oral
run_conditions: plasma
property: AUC at 120 h (µg·h/mL)
Reply with just the number (in µg·h/mL).

Name the reported AUC at 120 h value associated with the compound COc1ccc(N2Cc3cnc(Nc4ccccc4)nc3N([C@@H]3CC[C@@H](O)C3)C2=O)cc1 (racemic)
150
